MIC overview
Tested on: Staph. aureus SS 09
Type: cell-based
test settings: Brain Heart Infusion, estolate and RV11-RV15 previously hydrolized, unit assumed
Give a bare numeral; the unit µg/mL is implied.

Please review the following examples before continuing.
compound	value unit	test value
CCC(=O)O[C@H]1[C@H](O[C@@H]2[C@@H](C)[C@H](O[C@H]3C[C@@](C)(OC)[C@@H](O)[C@H](C)O3)[C@@H](C)C(=O)O[C@H](CC)[C@@](C)(O)[C@H](O)[C@@H](C)C(=O)[C@H](C)C[C@@]2(C)O)O[C@H](C)C[C@@H]1N(C)C [RV11]	µg/mL	0.1
CC[C@H]1OC(=O)[C@H](C)[C@@H](O[C@H]2C[C@@](C)(OC)[C@@H](O)[C@H](C)O2)[C@H](C)[C@@H](O[C@@H]2O[C@H](C)C[C@H](N(C)C)[C@H]2O)[C@](C)(O)C[C@@H](C)C(=O)[C@H](C)[C@@H](O)[C@]1(C)O [RV03, erythromycyn-thiazolidin-carboxylate]	µg/mL	0.05

From here, focus on the item given below.
MIC for CCC(=O)O[C@H]1[C@H](O[C@@H]2[C@@H](C)[C@H](O[C@H]3C[C@@](C)(OC)[C@@H](O)[C@H](C)O3)[C@@H](C)C(=O)O[C@H](CC)[C@@](C)(O)[C@H](O)[C@@H](C)C(=O)[C@H](C)C[C@@]2(C)O)O[C@H](C)C[C@@H]1N(C)C [erythromycin estolate, reference compound] is 0.05

----------
System: C. diphtheriae SS 19
Assay type: cell-based
test settings: Brain Heart Infusion, estolate and RV11-RV15 previously hydrolized, unit assumed
measured endpoint: MIC (µg/mL)
Give a bare numeral; the unit µg/mL is implied.

Please review the following examples before continuing.
molecule	target under test	value unit	MIC
CC[C@H]1OC(=O)[C@H](C)[C@@H](O[C@H]2C[C@@](C)(OC)[C@@H](O)[C@H](C)O2)[C@H](C)[C@@H](O[C@@H]2O[C@H](C)C[C@H](N(C)C)[C@H]2O)[C@](C)(O)C[C@@H](C)C(=O)[C@H](C)[C@@H](O)[C@]1(C)O [RV03, erythromycyn-thiazolidin-carboxylate]	C. diphtheriae SS 19	µg/mL	0.025
CCC(=O)O[C@H]1[C@H](O[C@@H]2[C@@H](C)[C@H](O[C@H]3C[C@@](C)(OC)[C@@H](O)[C@H](C)O3)[C@@H](C)C(=O)O[C@H](CC)[C@@](C)(O)[C@H](O)[C@@H](C)C(=O)[C@H](C)C[C@@]2(C)O)O[C@H](C)C[C@@H]1N(C)C [erythromycin estolate, reference compound]	C. diphtheriae SS 19	µg/mL	0.025

MIC for CCC(=O)O[C@H]1[C@H](O[C@@H]2[C@@H](C)[C@H](O[C@H]3C[C@@](C)(OC)[C@@H](O)[C@H](C)O3)[C@@H](C)C(=O)O[C@H](CC)[C@@](C)(O)[C@H](O)[C@@H](C)C(=O)[C@H](C)C[C@@]2(C)O)O[C@H](C)C[C@@H]1N(C)C [RV14] is 0.01

----------
method notes: Hematic levels in the healthy volunteer
Type: in vivo, healthy volunteers
test settings: 0.30 hours; oral, 500 mg of erythromycin; average; 18 min
Answer f if Hematic levels in the healthy volunteer is under 1 µg/mL, and t if it is 1 µg/mL or more.

compound	class assignment
CCC(=O)O[C@H]1[C@H](O[C@@H]2[C@@H](C)[C@H](O[C@H]3C[C@@](C)(OC)[C@@H](O)[C@H](C)O3)[C@@H](C)C(=O)O[C@H](CC)[C@@](C)(O)[C@H](O)[C@@H](C)C(=O)[C@H](C)C[C@@]2(C)O)O[C@H](C)C[C@@H]1N(C)C [RV14]	t

Request: Evaluate CCC(=O)O[C@H]1[C@H](O[C@@H]2[C@@H](C)[C@H](O[C@H]3C[C@@](C)(OC)[C@@H](O)[C@H](C)O3)[C@@H](C)C(=O)O[C@H](CC)[C@@](C)(O)[C@H](O)[C@@H](C)C(=O)[C@H](C)C[C@@]2(C)O)O[C@H](C)C[C@@H]1N(C)C [erythromycin estolate, reference compound] : Hematic levels in the healthy volunteer at minimum 1 µg/mL?
Response: f

Request: Evaluate CCC(=O)O[C@H]1[C@H](O[C@@H]2[C@@H](C)[C@H](O[C@H]3C[C@@](C)(OC)[C@@H](O)[C@H](C)O3)[C@@H](C)C(=O)O[C@H](CC)[C@@](C)(O)[C@H](O)[C@@H](C)C(=O)[C@H](C)C[C@@]2(C)O)O[C@H](C)C[C@@H]1N(C)C [RV15] : Hematic levels in the healthy volunteer at minimum 1 µg/mL?
Response: t

Request: Evaluate CCC(=O)O[C@H]1[C@H](O[C@@H]2[C@@H](C)[C@H](O[C@H]3C[C@@](C)(OC)[C@@H](O)[C@H](C)O3)[C@@H](C)C(=O)O[C@H](CC)[C@@](C)(O)[C@H](O)[C@@H](C)C(=O)[C@H](C)C[C@@]2(C)O)O[C@H](C)C[C@@H]1N(C)C [RV11] : Hematic levels in the healthy volunteer at minimum 1 µg/mL?
Response: t

Request: Evaluate CCC(=O)O[C@H]1[C@H](O[C@@H]2[C@@H](C)[C@H](O[C@H]3C[C@@](C)(OC)[C@@H](O)[C@H](C)O3)[C@@H](C)C(=O)O[C@H](CC)[C@@](C)(O)[C@H](O)[C@@H](C)C(=O)[C@H](C)C[C@@]2(C)O)O[C@H](C)C[C@@H]1N(C)C [RV13] : Hematic levels in the healthy volunteer at minimum 1 µg/mL?
Response: t

The measurements presented in this section are drawn from patent US4476120A.
